Study Target: TDP-43 (Homo sapiens, UniProt Q13148 1-414)
Sequence (Q13148 whole entry): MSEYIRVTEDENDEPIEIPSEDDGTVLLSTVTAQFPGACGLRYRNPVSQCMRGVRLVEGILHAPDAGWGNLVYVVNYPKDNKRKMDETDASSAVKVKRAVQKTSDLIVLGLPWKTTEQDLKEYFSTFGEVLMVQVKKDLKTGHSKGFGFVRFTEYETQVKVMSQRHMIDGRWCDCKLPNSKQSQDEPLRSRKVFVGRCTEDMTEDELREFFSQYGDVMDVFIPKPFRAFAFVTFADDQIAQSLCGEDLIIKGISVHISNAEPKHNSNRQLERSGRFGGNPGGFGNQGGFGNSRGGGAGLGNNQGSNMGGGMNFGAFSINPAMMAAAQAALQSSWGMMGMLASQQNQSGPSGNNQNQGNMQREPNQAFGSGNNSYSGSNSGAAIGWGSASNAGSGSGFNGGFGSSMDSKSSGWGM
Assay Procedure: RNA Bind-n-Seq with designed 260-mer pool; 25 mM Tris-HCl, 150 mM KCl, 3 mM MgCl2, BSA (printed 500 mg/mL), 20 units/mL SUPERase IN; pH not stated; 500 nM RNA pool, 1 h, 4 C; TDP-43 5, 50, 500 nM; high values mean tight binding
Test Settings: protein: recombinant; tags: SBP (GST cleaved off with PreScission; pGEX-GST-SBP)
Whole data set: some 9,900 sequences, median “r (bound/input frequency ratio)” near 0.7, cut for the highest 2% near 6.5. Shown is part of a subset that was picked to be rich in the highest values.
Catalogue of binders with associated binding signal

Example entries begin here.
{"columns": ["Binder", "Result"],
 "data": [
  ["ENSMUSG00000031028.47|Tub (ssRNA) RNA: GGGAGUUCUACAGUCCGACGAUCGCUUCGAUAUCCGCAUGCUACUGAAGCAGGGGGGACAGCAAAUGGGUAUGACAGGAGAAGAAUAUUUCUGUGCCCCAAGGUCAACACACAUGCCCAGUCCUGGGUCAGUCCCCUGCUGCAGUGGUGUUAUCACACCGGAAAGCCUCUUCACCUGGAGGUACAGAGGGAGAGGAAGCACAAGCCUGGCUGCUGUGGCUCAGCCAUCCACUCAGCCUACGAGUCAGAGACAGUGGGUGUCCCGGGAAGCAGGGGUACAGUGAGUGUGUGUGUAUGUACAGGGCUCUUGCGGUCGCACUAGUGUGGAAUUCUCGGGUGUCAAGG", "2.21 R (bound/input frequency ratio)"],
  ["ENSMUSG00000043670.167|Diras1 (ssRNA) RNA: GGGAGUUCUACAGUCCGACGAUCGCUUCGAUAUCCGCAUGCUAGGUUUGGGGUGCUGAGGGUGGGGUGCCCAGCUGAGAGUCUAUCAGCAAAGUCCCUGUGUGCGGUGAUAGGACUAGUGGCUGCUGCCCUAGGGCUCUGACAGAAUCUGAGCCUCUUUGCUGGUCAUGUGUACUCUGGAGACUGUCCCCCAUGUCUGCCCUGAGUUACGGAGCCCCUGUGGUAUCUGCGAGACUGUCCAGGAGACUUGAGUGGCUCCUGGGCCUGUGUCCCACCCAGAUGAGGGUGACUUAGAAUUCUGUGUCUCUUGCGGUCGCACUAGUGUGGAAUUCUCGGGUGUCAAGG", "1.03 R (bound/input frequency ratio)"],
  ["ENSMUSG00000061578.312|Ksr2 (ssRNA) RNA: GGGAGUUCUACAGUCCGACGAUCGCUUCGAUAUCCGCAUGCUACCAGGGAGGGCUGAAGCUCUGGGACCCUGAAGUGUCCCCCGGGAACUGGGACUCACUCAUCUUCUCCUGUUUGUAGCUCAAUGACCCAGUGGGUCACAGUUCUAGGCGCUCCAAGGAAGCCAGGGGAGGGGGACUCCUCAGGAAGGAGUGACCAGUCACCUGCCUCCCAGGGUUCUGCCUUGCCCUUAAGCUAGGGUCCUUCAAGCAUCCACAGACUUAGAGUGUGGUGGUAACAUGCUUGUAAUCCUGGCACUCUGGAGCUCUUGCGGUCGCACUAGUGUGGAAUUCUCGGGUGUCAAGG", "0.535 R (bound/input frequency ratio)"],
  ["ENSMUSG00000042529.381|Kcnj12 (ssRNA) RNA: GGGAGUUCUACAGUCCGACGAUCGCUUCGAUAUCCGCAUGCUAUUUGGGUAAGGUGGGUUUCAUGCUCACCAACCUGAACUGGUCAGGCUGGAUGCUGGCCACAGACAUGAUCAGUCCGACUUGAGUCCCUGCCCUGCCCUGGUUAUGCAGGCUGUACGACGCAGUGUGCAUCAGUCUGAGGAGUCUGGUGGUAAGUAAGCCUCUGCAGCAGACCCUGUCGGAGGCCAUGGGGGCGUGUGUGUGUGUGUGUGUGUGUGUGUGUGUGUGUGUGUGUGUGUGUGUGUGUGAACAUGUGUGAGGGUCUCUUGCGGUCGCACUAGUGUGGAAUUCUCGGGUGUCAAGG", "6.18 R (bound/input frequency ratio)"],
  ["ENSMUSG00000043670.121|Diras1 (ssRNA) RNA: GGGAGUUCUACAGUCCGACGAUCGCUUCGAUAUCCGCAUGCUAUGUCUGCACACCAGGGUGGAUGGGCCCGAGGGCUGGGCCUCAGGCACCAGGCAAUAAACACAGGGCCUGCAGCAAUGCCCUGGCCACCCCGAGUACCACCUCUGGAAUAGCAGACGCCCACAGCACAAGCCCAGGACUGUCCCUUCAGGGGAGGCACACUGGAACCCUGAACUUGGAGUGUGGAGUGGCUGCCUGGACACUGCCCACCUGGACACCAGCCUUCUGCUGAGAUAGAGACCUUGGCACAGUGGCACCUCGACCUCUUGCGGUCGCACUAGUGUGGAAUUCUCGGGUGUCAAGG", "0.914 R (bound/input frequency ratio)"],
  ["ENSMUSG00000090935.77|Synj2bp (ssRNA) RNA: GGGAGUUCUACAGUCCGACGAUCGCUUCGAUAUCCGCAUGCUACUUUGUCAGCAUAGGCAGGAGUCCUUUAGGAUUUCUGCCUAUCAGUAAAAGAAGUAUGUAACCCAAGUUCUACCUUCAGUGGAUUAAAGUUUCAUUAAGUGAAAAUGGAAAGAAAGUAGAAUUACUUGGUAAGAGGCCAAAUGAGGAUACAGAGGCUGAAGAAGAUUGAAAGGAGCUAGUGUAAACAAACAAACAAACAAACAAACAAAAAACCAAACCCCAAAACAAAAACAAAAACAAAACAAAAUUGGAGAAAGCAGCUCUUGCGGUCGCACUAGUGUGGAAUUCUCGGGUGUCAAGG", "0.858 R (bound/input frequency ratio)"]
]}

The recorded binding signal for ENSMUSG00000029028.246|Lrrc47|180:184 (ssRNA) RNA: GGGAGUUCUACAGUCCGACGAUCGCUUCGAUAUCCGCAUGCUAUCCUCGUGGCAGACCCUGGACAACGCUGGUAGCUGUUCUCCAUGAGACACGGCUGCUCACAGGUCCCUUUGAGUGGCUGUGGCAAGUACUCACCUACUAAGUGUUUAGGGUGGAGCUAUCCUGUGCUCACCCUGUCUCCCCCCAGUUCCUGCUGUUCCCUCCAGCCCAGCCCAGCCCAGCACACAGAUUCAUUGAGAUUUUUGAAACUGUUUUUACAGAUUCAAGCAGAACGCCUCUUUGUUCUAAUAAAAACCCUUGGUCUCUUGCGGUCGCACUAGUGUGGAAUUCUCGGGUGUCAAGG is 0.573 R (bound/input frequency ratio)
